Tested on: human lung cancer cells (A-549)
Assay: Tumor cell proliferation inhibition test (MTT), A-549
Type: cell-based
Conditions: A549 cells, 48 hours treatment, read-out: Half Inhibitory Concentration IC50 A549
Parameter: IC50. Scope: all listed entries.
Please state the figure in µM; there is no need to write the unit.

| compound | value type | value unit | observed measurement |
| --- | --- | --- | --- |
| Cc1cnc2c(c1)/C(=N/N=C1\C(=O)Nc3ncc(Cl)cc31)C(=O)N2 | IC50 | µM | 55.8 |
| CN1C(=O)/C(=N\N=C2/C(=O)N(Cc3ccccc3)c3ncccc32)c2cccnc21 | IC50 | µM | 85.8 |

The record that follows has no IC50 shown yet.
The compound listed as Nc1ccn([C@@H]2O[C@H](CO)[C@@H](O)[C@@H]2O)c(=O)n1 [Ara-C, cytarabine, reference compound] has a reported IC50 of 14.9

----------
value type: melting point

| smiles text | melting point |
| --- | --- |
| CN1C(=O)/C(=N\N=C2/C(=O)N(Cc3ccccc3)c3ncccc32)c2cccnc21 | 214.3 °C |

In plain terms, CCN1C(=O)/C(=N\N=C2/C(=O)N(C(C)C)c3ncccc32)c2cccnc21 has a documented melting point of 191.9 °C

Just so you know, measured melting point for CC(C)N1C(=O)/C(=N\N=C2/C(=O)N(C)c3ncccc32)c2cccnc21 came out at 182.5 °C

Sure, the documented melting point for CCN1C(=O)/C(=N\N=C2/C(=O)N(C)c3ncccc32)c2cccnc21 is 195.6 °C

compound Cc1cnc2c(c1)/C(=N/N=C1\C(=O)Nc3ncc(Cl)cc31)C(=O)N2 , melting point observed: 174.5 °C
